# Test system: MIA PaCa-2
# ASSAY_NAME: Antiproliferative activity against human MIA PaCa-2 cells assessed as cell viability measured after 72 hrs by MTT assay
# Assay type: functional, cell-based
# MEASUREMENT_CONDITIONS: MIA PaCa-2, 72 h
pEC50: −log10 of the molar value.
TEST_READOUT: pEC50

P. CNC(=O)c1cccc(Cn2nc(C)c(NC(=O)c3ccc(COc4cccc(C(F)(F)F)c4)cc3)c2C)c1
Q. CNC(=O)c1cccc(Cn2nc(C)c(NC(=O)c3ccc(COc4cccc(C)c4)cc3)c2C)c1
R. C#Cc1cccc(Nc2ncnc3cc(OCCOC)c(OCCOC)cc23)c1
-- ask Order the records so the highest pEC50 appears first and the lowest last. Use the labels to give the requested order.
-- reply P, Q, R

The measurements presented in this section are drawn from ChEMBL document CHEMBL5260797.
